Can you tell me combination Emax for the items I'm about to list?
- System: A498 (Kidney Carcinoma)
- assay_name: combination Emax (second highest fraction inhibited in the dose matrix, 72 h); higher = more inhibition; extreme values may be limits of the assay
# print the numeric value only

### Prompt Need combination Emax, item C[C@@H](c1ccc2nccn2c1)n1nnc2ncc(-c3cnn(C)c3)nc21 [Savolitinib] + Cc1c2c(nn1C)CSCc1cc(n(C)n1)CSc1cc(c3ccccc3c1)OCCCc1c(C(=O)O)n(C)c3c-2c(Cl)ccc13 [AZD5991] (first compound max 1 µM, 7x7, partner max 1 µM)
### Response 0.212

### Prompt Need combination Emax, item COc1cccc(OCCCN)c1-c1cc(Nc2cnc(C#N)cn2)n[nH]1 [Prexasertib] + Cc1cc2ncnn2cc1Nc1ncc2c(n1)n(C1CCOCC1)c(=O)n2C [AZD7648] (first compound max 1 µM, 7x7, partner max 10 µM)
### Response 0.642

### Prompt Need combination Emax, item Cn1cnc2c(F)c(Nc3ccc(Br)cc3Cl)c(C(=O)NOCCO)cc21 [Selumetinib] + C[C@@H]1COCCN1C2=NC(=NC(=C2)C3(CC3)[S@](=N)(=O)C)C4=C5C=CNC5=NC=C4 [AZD6738] (first compound max 10 µM, 7x7, partner max 10 µM)
### Response 0.57

### Prompt Need combination Emax, item Cc1c2c(nn1C)CSCc1cc(n(C)n1)CSc1cc(c3ccccc3c1)OCCCc1c(C(=O)O)n(C)c3c-2c(Cl)ccc13 [AZD5991] + CC1(C)CCC(CN2CCN(c3ccc(C(=O)NS(=O)(=O)c4ccc(NCC5CCOCC5)c([N+](=O)[O-])c4)c(Oc4cnc5[nH]ccc5c4)c3)CC2)=C(c2ccc(Cl)cc2)C1 [Venetoclax] (first compound max 1 µM, 7x7, partner max 1 µM)
### Response 0.361

### Prompt Need combination Emax, item COc1cccc(OCCCN)c1-c1cc(Nc2cnc(C#N)cn2)n[nH]1 [Prexasertib] + O=C(c1cc(Cc2n[nH]c(=O)c3ccccc23)ccc1F)N1CCN(C(=O)C2CC2)CC1 [Olaparib] (first compound max 1 µM, 7x7, partner max 10 µM)
### Response 0.591

### Prompt Need combination Emax, item C=CCn1c(=O)c2cnc(Nc3ccc(N4CCN(C)CC4)cc3)nc2n1-c1cccc(C(C)(C)O)n1 [AZD1775] + C[C@@H]1COCCN1C2=NC(=NC(=C2)C3(CC3)[S@](=N)(=O)C)C4=C5C=CNC5=NC=C4 [AZD6738] (first compound max 1 µM, partner max 10 µM)
### Response 0.682

### Prompt Need combination Emax, item NC1(C(=O)N[C@@H](CCO)c2ccc(Cl)cc2)CCN(c2ncnc3[nH]ccc23)CC1 [Capivasertib] + Cn1cnc2c(F)c(Nc3ccc(Br)cc3Cl)c(C(=O)NOCCO)cc21 [Selumetinib] (first compound max 10 µM, 7x7, partner max 10 µM)
### Response 0.799

### Prompt Need combination Emax, item Cc1c2c(nn1C)CSCc1cc(n(C)n1)CSc1cc(c3ccccc3c1)OCCCc1c(C(=O)O)n(C)c3c-2c(Cl)ccc13 [AZD5991] + CCN(CCO)CCCOc1ccc2c(Nc3cc(CC(=O)Nc4cccc(F)c4)[nH]n3)ncnc2c1 [AZD2811] (first compound max 1 µM, 7x7, partner max 1 µM)
### Response 0.352

### Prompt Need combination Emax, item Cc1cc2ncnn2cc1Nc1ncc2c(n1)n(C1CCOCC1)c(=O)n2C [AZD7648] + C=CCn1c(=O)c2cnc(Nc3ccc(N4CCN(C)CC4)cc3)nc2n1-c1cccc(C(C)(C)O)n1 [AZD1775] (first compound max 10 µM, partner max 1 µM)
### Response 0.521

### Prompt Need combination Emax, item COc1cccc(OCCCN)c1-c1cc(Nc2cnc(C#N)cn2)n[nH]1 [Prexasertib] + CN(C)CCCOc1ccc(-c2ccc3ncc4c(c3c2)n(C2CCOCC2)c(=O)n4C)cn1 [AZD0156] (first compound max 1 µM, 7x7, partner max 1 µM)
### Response 0.725

### Prompt Need combination Emax, item C[C@@H](c1ccc2nccn2c1)n1nnc2ncc(-c3cnn(C)c3)nc21 [Savolitinib] + CN(CC[C@H](CSC1=CC=CC=C1)NC2=C(C=C(C=C2)S(=O)(=O)NC(=O)C3=CC=C(C=C3)N4CCC(CC4)[C@H](C5=CC=CC=C5C6=CC=C(C=C6)Cl)O)S(=O)(=O)C(F)(F)F)CCO [AZD4320] (first compound max 1 µM, 7x7, partner max 1 µM)
### Response 0.308

### Prompt Need combination Emax, item CCN(CCO)CCCOc1ccc2c(Nc3cc(CC(=O)Nc4cccc(F)c4)[nH]n3)ncnc2c1 [AZD2811] + O=C(c1cc(Cc2n[nH]c(=O)c3ccccc23)ccc1F)N1CCN(C(=O)C2CC2)CC1 [Olaparib] (first compound max 1 µM, 7x7, partner max 10 µM)
### Response 0.241

### Prompt Need combination Emax, item COc1cccc(OCCCN)c1-c1cc(Nc2cnc(C#N)cn2)n[nH]1 [Prexasertib] + C=CCn1c(=O)c2cnc(Nc3ccc(N4CCN(C)CC4)cc3)nc2n1-c1cccc(C(C)(C)O)n1 [AZD1775] (first compound max 1 µM, partner max 1 µM)
### Response 0.598

### Prompt Need combination Emax, item CCc1c2c(nc3ccc(O)cc13)-c1cc3c(c(=O)n1C2)COC(=O)[C@]3(O)CC [SN-38] + CN(C)CCCOc1ccc(-c2ccc3ncc4c(c3c2)n(C2CCOCC2)c(=O)n4C)cn1 [AZD0156] (first compound max 0.3 µM, 7x7, partner max 1 µM)
### Response 0.5

====

Can you tell me combination Emax for the items I'm about to list?
- System: COLO-824 (Breast Carcinoma)
- assay_name: combination Emax (second highest fraction inhibited in the dose matrix, 72 h); higher = more inhibition; extreme values may be limits of the assay
# print the numeric value only

### Prompt Need combination Emax, item Cc1c2c(nn1C)CSCc1cc(n(C)n1)CSc1cc(c3ccccc3c1)OCCCc1c(C(=O)O)n(C)c3c-2c(Cl)ccc13 [AZD5991] + CC1(C)CCC(CN2CCN(c3ccc(C(=O)NS(=O)(=O)c4ccc(NCC5CCOCC5)c([N+](=O)[O-])c4)c(Oc4cnc5[nH]ccc5c4)c3)CC2)=C(c2ccc(Cl)cc2)C1 [Venetoclax] (first compound max 1 µM, 7x7, partner max 1 µM)
### Response 0.997

### Prompt Need combination Emax, item COc1cc2c(cc1OCCCCCOc1cc3c(cc1OC)C(=O)N1C=C(C)C[C@H]1C=N3)N=C[C@@H]1CC(C)=CN1C2=O [SG3199] + O=C(c1cc(Cc2n[nH]c(=O)c3ccccc23)ccc1F)N1CCN(C(=O)C2CC2)CC1 [Olaparib] (first compound max 0.001 µM, 7x7, partner max 10 µM)
### Response 0.147

### Prompt Need combination Emax, item Cn1cnc2c(F)c(Nc3ccc(Br)cc3Cl)c(C(=O)NOCCO)cc21 [Selumetinib] + CCN(CCO)CCCOc1ccc2c(Nc3cc(CC(=O)Nc4cccc(F)c4)[nH]n3)ncnc2c1 [AZD2811] (first compound max 10 µM, 7x7, partner max 1 µM)
### Response 0.825

====

Can you tell me combination Emax for the items I'm about to list?
- System: SISO (Cervical Carcinoma)
- assay_name: combination Emax (second highest fraction inhibited in the dose matrix, 72 h); higher = more inhibition; extreme values may be limits of the assay
# print the numeric value only

### Prompt Hi! What's the reported combination Emax for CN(CCO)CC[C@H](CSc1ccccc1)Nc1ccc(S(=O)(=O)NC(=O)c2ccc(N3CCC([C@@H](O)c4ccccc4-c4ccc(Cl)cc4)CC3)cc2)cc1S(=O)(=O)C(F)(F)F [AZD4320] + C=CCn1c(=O)c2cnc(Nc3ccc(N4CCN(C)CC4)cc3)nc2n1-c1cccc(C(C)(C)O)n1 [AZD1775] (first compound max 1 µM, partner max 1 µM) on SISO (Cervical Carcinoma)?
### Response 0.549

### Prompt Hi! What's the reported combination Emax for Cn1cnc2c(F)c(Nc3ccc(Br)cc3Cl)c(C(=O)NOCCO)cc21 [Selumetinib] + CC(C)n1c(=O)n(C)c2cnc3cc(F)c(-c4ccc(OCCCN5CCCCC5)nc4)cc3c21 [AZD1390] (first compound max 10 µM, 7x7, partner max 0.3 µM) on SISO (Cervical Carcinoma)?
### Response 0.0869

====

- Test system: NY (Osteosarcoma)
- assay_name: Bliss excess, mean over the matrix (fraction); higher = more synergy
quantity_measured: Bliss excess

### Prompt Need Bliss excess, item Cc1c2c(nn1C)CSCc1cc(n(C)n1)CSc1cc(c3ccccc3c1)OCCCc1c(C(=O)O)n(C)c3c-2c(Cl)ccc13 [AZD5991] + CC(=O)O[C@H]1C(=O)[C@@]2(C)[C@H]([C@H](OC(=O)c3ccccc3)[C@]3(O)C[C@H](OC(=O)[C@H](O)[C@@H](NC(=O)c4ccccc4)c4ccccc4)C(C)=C1C3(C)C)[C@]1(OC(C)=O)CO[C@@H]1C[C@@H]2O [Paclitaxel] (first compound max 1 µM, 7x7, partner max 3 µM)
### Response 0.0268

### Prompt Need Bliss excess, item CCc1c2c(nc3ccc(O)cc13)-c1cc3c(c(=O)n1C2)COC(=O)[C@]3(O)CC [SN-38] + O=C(c1cc(Cc2n[nH]c(=O)c3ccccc23)ccc1F)N1CCN(C(=O)C2CC2)CC1 [Olaparib] (first compound max 0.3 µM, 7x7, partner max 10 µM)
### Response 0.071

### Prompt Need Bliss excess, item COc1cccc(OCCCN)c1-c1cc(Nc2cnc(C#N)cn2)n[nH]1 [Prexasertib] + Cc1cc2ncnn2cc1Nc1ncc2c(n1)n(C1CCOCC1)c(=O)n2C [AZD7648] (first compound max 1 µM, 7x7, partner max 10 µM)
### Response -0.0328

### Prompt Need Bliss excess, item N#Cc1cnc(Nc2cc(NC[C@H]3CNCCO3)c(C(F)(F)F)cn2)cn1 [SRA737] + CCc1c2c(nc3ccc(O)cc13)-c1cc3c(c(=O)n1C2)COC(=O)[C@]3(O)CC [SN-38] (first compound max 10 µM, 7x7, partner max 0.3 µM)
### Response -0.0729

### Prompt Need Bliss excess, item NC1(C(=O)N[C@@H](CCO)c2ccc(Cl)cc2)CCN(c2ncnc3[nH]ccc23)CC1 [Capivasertib] + CC(=O)c1c(C)c2cnc(Nc3ccc(N4CCNCC4)cn3)nc2n(C2CCCC2)c1=O [Palbociclib] (first compound max 10 µM, 7x7, partner max 10 µM)
### Response -0.0134

### Prompt Need Bliss excess, item COc1nnc2ccc(N3CCC(c4ccc(OCCN5CCN(C)C(=O)[C@H]5C)cc4)CC3)nn12 [AZD5153] + C[C@@H]1COCCN1C2=NC(=NC(=C2)C3(CC3)[S@](=N)(=O)C)C4=C5C=CNC5=NC=C4 [AZD6738] (first compound max 1 µM, 7x7, partner max 10 µM)
### Response -0.0188

### Prompt Need Bliss excess, item COc1cccc2c1C(=O)c1c(O)c3c(c(O)c1C2=O)C[C@@](O)(C(=O)CO)C[C@@H]3O[C@H]1C[C@H](N)[C@H](O)[C@H](C)O1 [Doxorubicin] + Cc1cc2ncnn2cc1Nc1ncc2c(n1)n(C1CCOCC1)c(=O)n2C [AZD7648] (first compound max 1 µM, 7x7, partner max 10 µM)
### Response 0.0578

### Prompt Need Bliss excess, item Cc1cc2ncnn2cc1Nc1ncc2c(n1)n(C1CCOCC1)c(=O)n2C [AZD7648] + CN(C)CCCOc1ccc(-c2ccc3ncc4c(c3c2)n(C2CCOCC2)c(=O)n4C)cn1 [AZD0156] (first compound max 10 µM, 7x7, partner max 1 µM)
### Response -0.0172

### Prompt Need Bliss excess, item COc1nnc2ccc(N3CCC(c4ccc(OCCN5CCN(C)C(=O)[C@H]5C)cc4)CC3)nn12 [AZD5153] + Cn1cnc2c(F)c(Nc3ccc(Br)cc3Cl)c(C(=O)NOCCO)cc21 [Selumetinib] (first compound max 1 µM, 7x7, partner max 10 µM)
### Response -0.005

### Prompt Need Bliss excess, item O=C(c1cc(Cc2n[nH]c(=O)c3ccccc23)ccc1F)N1CCN(C(=O)C2CC2)CC1 [Olaparib] + Cc1c2c(nn1C)CSCc1cc(n(C)n1)CSc1cc(c3ccccc3c1)OCCCc1c(C(=O)O)n(C)c3c-2c(Cl)ccc13 [AZD5991] (first compound max 10 µM, 7x7, partner max 1 µM)
### Response -0.0239

### Prompt Need Bliss excess, item CN(CCO)CC[C@H](CSc1ccccc1)Nc1ccc(S(=O)(=O)NC(=O)c2ccc(N3CCC([C@@H](O)c4ccccc4-c4ccc(Cl)cc4)CC3)cc2)cc1S(=O)(=O)C(F)(F)F [AZD4320] + C1CN(CCC1(C(=O)N[C@@H](CCO)C2=CC=C(C=C2)Cl)N)C3=NC=NC4=C3C=CN4 [Capivasertib] (first compound max 1 µM, 7x7, partner max 3 µM)
### Response -0.0277

### Prompt Need Bliss excess, item COc1cccc(OCCCN)c1-c1cc(Nc2cnc(C#N)cn2)n[nH]1 [Prexasertib] + O=C(c1cc(Cc2n[nH]c(=O)c3ccccc23)ccc1F)N1CCN(C(=O)C2CC2)CC1 [Olaparib] (first compound max 1 µM, 7x7, partner max 10 µM)
### Response -0.0128

### Prompt Need Bliss excess, item COc1cccc(OCCCN)c1-c1cc(Nc2cnc(C#N)cn2)n[nH]1 [Prexasertib] + C=CCn1c(=O)c2cnc(Nc3ccc(N4CCN(C)CC4)cc3)nc2n1-c1cccc(C(C)(C)O)n1 [AZD1775] (first compound max 1 µM, partner max 1 µM)
### Response -0.008

### Prompt Need Bliss excess, item CCN(CCO)CCCOc1ccc2c(Nc3cc(CC(=O)Nc4cccc(F)c4)[nH]n3)ncnc2c1 [AZD2811] + C[C@@H]1COCCN1C2=NC(=NC(=C2)C3(CC3)[S@](=N)(=O)C)C4=C5C=CNC5=NC=C4 [AZD6738] (first compound max 1 µM, 7x7, partner max 10 µM)
### Response -0.0508

Data credit: the supplement of paper PMC11061612
